Entries annotated with measured pIC50
- system-name: Mitogen-activated protein kinase kinase kinase 5 (Homo sapiens, UniProt Q99683)
- Sequence (Q99683 whole entry): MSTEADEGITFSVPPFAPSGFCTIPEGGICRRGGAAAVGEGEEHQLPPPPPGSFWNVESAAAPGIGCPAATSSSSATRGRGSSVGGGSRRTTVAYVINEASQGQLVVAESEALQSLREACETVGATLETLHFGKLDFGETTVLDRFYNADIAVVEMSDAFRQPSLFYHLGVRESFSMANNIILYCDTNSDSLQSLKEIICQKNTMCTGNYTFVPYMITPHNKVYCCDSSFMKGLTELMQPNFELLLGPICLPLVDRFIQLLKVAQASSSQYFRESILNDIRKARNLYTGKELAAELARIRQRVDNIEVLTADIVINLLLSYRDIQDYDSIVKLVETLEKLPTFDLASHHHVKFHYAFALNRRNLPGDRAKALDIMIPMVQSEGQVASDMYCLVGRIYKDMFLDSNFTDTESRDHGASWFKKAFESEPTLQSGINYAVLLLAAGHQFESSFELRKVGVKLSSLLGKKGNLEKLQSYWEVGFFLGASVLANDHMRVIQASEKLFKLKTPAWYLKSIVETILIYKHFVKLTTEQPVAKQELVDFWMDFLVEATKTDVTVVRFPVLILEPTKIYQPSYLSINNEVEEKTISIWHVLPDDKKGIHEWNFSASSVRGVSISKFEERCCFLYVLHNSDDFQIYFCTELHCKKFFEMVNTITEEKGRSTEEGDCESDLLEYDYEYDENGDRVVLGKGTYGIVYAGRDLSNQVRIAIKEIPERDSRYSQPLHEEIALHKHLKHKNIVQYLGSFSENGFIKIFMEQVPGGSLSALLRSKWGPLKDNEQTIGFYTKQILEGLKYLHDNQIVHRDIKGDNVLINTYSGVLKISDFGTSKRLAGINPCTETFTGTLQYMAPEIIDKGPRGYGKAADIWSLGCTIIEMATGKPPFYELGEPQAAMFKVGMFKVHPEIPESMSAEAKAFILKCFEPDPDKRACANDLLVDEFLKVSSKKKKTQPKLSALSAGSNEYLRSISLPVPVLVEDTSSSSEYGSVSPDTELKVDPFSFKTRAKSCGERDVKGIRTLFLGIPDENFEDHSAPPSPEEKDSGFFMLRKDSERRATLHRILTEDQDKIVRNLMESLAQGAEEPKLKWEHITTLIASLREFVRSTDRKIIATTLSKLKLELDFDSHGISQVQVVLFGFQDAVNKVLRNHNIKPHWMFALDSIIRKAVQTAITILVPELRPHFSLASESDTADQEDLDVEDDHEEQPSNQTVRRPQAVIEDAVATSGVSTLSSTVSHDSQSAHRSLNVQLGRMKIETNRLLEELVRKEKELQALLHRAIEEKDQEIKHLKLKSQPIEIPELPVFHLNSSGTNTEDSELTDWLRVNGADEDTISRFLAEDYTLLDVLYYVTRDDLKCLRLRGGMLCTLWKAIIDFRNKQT
- experiment-notes: HTRF KinEASE Assay: ASK1 was purchased from Thermofisher (Catalogue #PV4011), ATP was purchased from Sigma (Catalogue #A7699), HTRF® KinEASE™ Assay System was obtained from Cisbio (Bedford, Mass.). ½ Area plate was purchased from Perkin Elmer (Catalogue ##6005560). HTRF® KinEASE™-STK is a generic method for measuring serine/threonine kinase activities using a time-resolved fluorescence resonance energy transfer (TR-FRET) immunoassay. The IC50 value for each compound was determined in the presence of compound (various concentration from 0 to 10 μM) and a fixed amount of ATP and peptide substrates. The test compound, 1 μM STK3 peptide substrate, and 5 μM of ASK1 kinase are incubated with kinase reaction buffer containing 50 mM HEPES Ph 7.5, 0.01% BRIJ-35, 10 mM MgCl2, and 1 mM EGTA for 30 minutes. 100 μM ATP is added to start kinase reaction and incubated for 3 hours. The STK3-antibody labeled with Eu3+-Cryptate and 125 nM streptavidin-XL665 are mixed in a single addition with stop reagents provided by the Cisbio kit used to stop the kinase reaction. Fluorescence is detected using an Envision Multilabeled 2014 reader from PerkinElmer. The Fluorescence is measured at 615 nm (Cryptate) and 665 nm (XL665) and a ratio of 665 nm/615 nm is calculated for each well. The resulting TR-FRET is proportional to the phosphorylation level. Staurosporine was used as the positive control. IC50 was determined by Xlfit 5.3.
pIC50: −log10 of the molar value.

Request: # return recorded pIC50 for input CCOC(=O)N1CCc2cnc(C(=O)Nc3cccc(-c4nnc5n4CCCC5)n3)cc2C1
Result: < 6.00

Further cases:
Request: Give a short answer stating reported pIC50 for CCOC(=O)N1CCc2cc(OC)c(C(=O)Nc3cccc(-c4nnc5n4[C@H](C)CC5)n3)cc2C1 .
Result: > 8.90

Request: Tell me measured pIC50 for CCOC(=O)N1CCc2cc(OC)c(C(=O)Nc3cccc(-c4nnc5n4CCCC5)n3)cc2C1 please.
Result: 7.00 to 8.00

Request: Indicate the recorded pIC50 value for this molecule: CCOC(=O)N1CCc2cc(OC)c(C(=O)Nc3cccc(-c4nnc5n4C(C)(C)CC5)n3)cc2C1
Result: > 8.90

Request: Complete the entry with pIC50 for CCOC(=O)N1CCc2cc(F)c(C(=O)Nc3cccc(-c4nnc5n4CCCC5)n3)cc2C1
Result: < 6.00
